Measured pIC50 by item
target or system: Metabotropic glutamate receptor 5 (Homo sapiens, UniProt P41594)
test method notes: Negative allosteric modulation of human mGlu5 receptor expressed in HEK293 cells assessed as inhibition of L-glutamate-induced activity after 1 hr by FLIPR assay
Sequence (P41594 whole entry): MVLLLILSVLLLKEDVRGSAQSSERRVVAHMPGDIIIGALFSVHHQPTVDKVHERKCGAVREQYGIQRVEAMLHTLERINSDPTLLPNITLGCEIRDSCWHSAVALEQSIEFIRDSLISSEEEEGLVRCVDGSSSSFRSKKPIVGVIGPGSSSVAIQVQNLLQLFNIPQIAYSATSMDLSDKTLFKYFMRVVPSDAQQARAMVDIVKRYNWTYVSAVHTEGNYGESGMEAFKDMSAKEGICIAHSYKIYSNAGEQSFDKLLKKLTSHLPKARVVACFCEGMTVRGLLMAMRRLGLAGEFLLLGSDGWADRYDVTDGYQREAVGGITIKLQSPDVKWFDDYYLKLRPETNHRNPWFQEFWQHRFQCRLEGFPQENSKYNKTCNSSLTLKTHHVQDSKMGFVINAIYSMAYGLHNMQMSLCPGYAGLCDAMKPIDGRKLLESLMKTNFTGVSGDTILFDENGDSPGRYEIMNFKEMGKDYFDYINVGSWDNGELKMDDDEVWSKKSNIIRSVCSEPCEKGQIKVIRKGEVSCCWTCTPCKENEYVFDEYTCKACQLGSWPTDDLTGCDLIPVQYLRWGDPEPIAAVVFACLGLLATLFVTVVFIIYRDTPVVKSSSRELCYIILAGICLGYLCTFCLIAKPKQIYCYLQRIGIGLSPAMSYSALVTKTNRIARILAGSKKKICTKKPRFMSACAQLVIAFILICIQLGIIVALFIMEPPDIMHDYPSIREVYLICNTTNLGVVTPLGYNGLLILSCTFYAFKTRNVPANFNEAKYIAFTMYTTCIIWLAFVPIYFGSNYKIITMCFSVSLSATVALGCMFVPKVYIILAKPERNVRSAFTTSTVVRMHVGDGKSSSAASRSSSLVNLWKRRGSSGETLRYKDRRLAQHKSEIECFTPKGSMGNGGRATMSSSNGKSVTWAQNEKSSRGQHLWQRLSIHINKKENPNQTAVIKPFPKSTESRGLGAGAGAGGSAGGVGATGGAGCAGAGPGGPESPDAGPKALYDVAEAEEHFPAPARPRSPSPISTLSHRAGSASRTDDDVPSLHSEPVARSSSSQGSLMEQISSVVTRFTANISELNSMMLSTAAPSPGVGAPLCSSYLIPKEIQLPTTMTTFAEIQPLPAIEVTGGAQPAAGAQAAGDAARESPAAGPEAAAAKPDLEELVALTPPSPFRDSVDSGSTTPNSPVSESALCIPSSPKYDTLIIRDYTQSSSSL
pIC50: −log10 of the molar value.
measured property: pIC50

INSERT INTO results (molecule, measured_property, experimental_value) VALUES
  ('O=C1NCCc2nc(C#Cc3ccccc3F)sc21', 'pIC50', '< 5.00'),
  ('O=C(N1CCC(F)CC1)N1CCc2nc(C#Cc3ccccc3)sc2C1', 'pIC50', '< 5.00'),
  ('O=C1c2sc(C#Cc3ccccc3)nc2CN1C1CC1', 'pIC50', 7.64),
  ('O=C(C1CC(F)(F)C1)N1CCc2nc(C#Cc3ccc(F)cc3)sc2C1', 'pIC50', '< 5.00'),
  ('O=S(=O)(N1CCCC1)N1CCc2nc(C#Cc3ccccc3)sc2C1', 'pIC50', 7.44),
  ('CCN1CCc2nc(C#Cc3cccc(F)c3)sc2C1', 'pIC50', 7.14),
  ('CC(C)CN1CCc2nc(C#Cc3ccccc3)sc2C1', 'pIC50', 6.19),
  ('O=C(C1CC12CCC2)N1CCc2nc(C#Cc3ccccc3)sc2C1 (stereo not given)', 'pIC50', '< 5.00'),
  ('O=C(c1cccc(F)c1)N1CCc2nc(C#Cc3ccccc3)sc2C1', 'pIC50', '< 5.00'),
  ('CN(C)S(=O)(=O)N1CCc2nc(C#Cc3ccccc3)sc2C1', 'pIC50', 8.24),
  ('CC1CC(C(=O)N2CCc3nc(C#Cc4ccccc4)sc3C2)C1 (stereo not given)', 'pIC50', '< 5.00'),
  ('O=C(N1CCc2nc(C#Cc3ccccc3)sc2C1)N1CC(F)(F)C1', 'pIC50', '< 5.00'),
  ('O=C(N1CCC(F)(F)CC1)N1CCc2nc(C#Cc3ccccc3)sc2C1', 'pIC50', '< 5.00'),
  ('CC1CC(C(=O)N2CCc3nc(C#Cc4cccc(F)c4)sc3C2)C1 (stereo not given)', 'pIC50', '< 5.00'),
  ('CN1CCC(C(=O)N2CCc3nc(C#Cc4ccccc4)sc3C2)CC1', 'pIC50', '< 5.00'),
  ('CC(C)S(=O)(=O)N1Cc2nc(C#Cc3ccccc3)sc2C1', 'pIC50', 6.85),
  ('O=S(=O)(N1CCCCC1)N1CCc2nc(C#Cc3ccccc3)sc2C1', 'pIC50', 6.11),
  ('O=C(N1CCCC1)N1CCc2nc(C#Cc3ccccc3)sc2C1', 'pIC50', '< 5.00'),
  ('CN1CCc2nc(C#Cc3cccc(F)c3)sc2C1', 'pIC50', '< 5.00'),
  ('Cc1nc(C(=O)N2CCc3nc(C#Cc4ccccc4)sc3C2)cs1', 'pIC50', '< 5.00'),
  ('CN1CCc2nc(C#Cc3ccccc3)sc2C1=O', 'pIC50', '< 5.00'),
  ('O=S(=O)(C1CCCCC1)N1Cc2nc(C#Cc3ccccc3)sc2C1', 'pIC50', '< 5.00'),
  ('O=C(C1CCOC1)N1CCc2nc(C#Cc3ccccc3)sc2C1 (stereo not given)', 'pIC50', '< 5.00'),
  ('Fc1cccc(C#Cc2nc3c(s2)CN(C2CCC2)CC3)c1', 'pIC50', 6.70),
  ('Cc1cc(C(=O)N2CCc3nc(C#Cc4ccccc4)sc3C2)no1', 'pIC50', '< 5.00'),
  ('O=C(C1CCOCC1)N1CCc2nc(C#Cc3ccccc3)sc2C1', 'pIC50', '< 5.00'),
  ('Fc1cccc(C#Cc2nc3c(s2)CN(C2CCCC2)CC3)c1', 'pIC50', 6.19),
  ('C(#Cc1nc2c(s1)CN(C1CCCCC1)CC2)c1ccccc1', 'pIC50', '< 5.00'),
  ('O=C(N1CCc2nc(C#Cc3ccccc3)sc2C1)N1CC(F)C1', 'pIC50', '< 5.00'),
  ('O=C1NCCc2nc(C#Cc3ccc(F)cc3)sc21', 'pIC50', '< 5.00'),
  ('N#Cc1cccc(C(=O)N2CCc3nc(C#Cc4ccccc4)sc3C2)c1', 'pIC50', '< 5.00'),
  ('O=C(CC1CCOCC1)N1CCc2nc(C#Cc3ccccc3)sc2C1', 'pIC50', '< 5.00'),
  ('COC1CC(C(=O)N2CCc3nc(C#Cc4ccccc4)sc3C2)C1 (stereo not given)', 'pIC50', '< 5.00'),
  ('CC1CCCC(C(=O)N2CCc3nc(C#Cc4ccccc4)sc3C2)C1 (stereo not given)', 'pIC50', '< 5.00'),
  ('O=C(C1CC(F)(F)C1)N1CCc2nc(C#Cc3ccccc3)sc2C1', 'pIC50', '< 5.00'),
  ('COc1cccc(C(=O)N2CCc3nc(C#Cc4ccccc4)sc3C2)c1', 'pIC50', '< 5.00'),
  ('CCN1CCc2nc(C#Cc3ccccc3)sc2C1', 'pIC50', 5.92),
  ('O=C(N1CCCCC1)N1CCc2nc(C#Cc3ccccc3)sc2C1', 'pIC50', '< 5.00'),
  ('O=C(C1CCCO1)N1CCc2nc(C#Cc3ccccc3)sc2C1 (stereo not given)', 'pIC50', '< 5.00'),
  ('O=S(=O)(C1CC1)N1CCc2nc(C#Cc3ccccc3)sc2C1', 'pIC50', 7.47);

====

target or system: Metabotropic glutamate receptor 5 (Homo sapiens, UniProt P41594)
test method notes: Negative allosteric modulation of human mGlu5 receptor expressed in HEK293 cells assessed as inhibition of L-glutamate-induced activity after 1 hr by FLIPR assay relative to control
Assay type: cell-based
Parameters: concentration or dose not given beside the values
assay context: concentration not given here
Sequence (P41594 21-1212 limits assumed): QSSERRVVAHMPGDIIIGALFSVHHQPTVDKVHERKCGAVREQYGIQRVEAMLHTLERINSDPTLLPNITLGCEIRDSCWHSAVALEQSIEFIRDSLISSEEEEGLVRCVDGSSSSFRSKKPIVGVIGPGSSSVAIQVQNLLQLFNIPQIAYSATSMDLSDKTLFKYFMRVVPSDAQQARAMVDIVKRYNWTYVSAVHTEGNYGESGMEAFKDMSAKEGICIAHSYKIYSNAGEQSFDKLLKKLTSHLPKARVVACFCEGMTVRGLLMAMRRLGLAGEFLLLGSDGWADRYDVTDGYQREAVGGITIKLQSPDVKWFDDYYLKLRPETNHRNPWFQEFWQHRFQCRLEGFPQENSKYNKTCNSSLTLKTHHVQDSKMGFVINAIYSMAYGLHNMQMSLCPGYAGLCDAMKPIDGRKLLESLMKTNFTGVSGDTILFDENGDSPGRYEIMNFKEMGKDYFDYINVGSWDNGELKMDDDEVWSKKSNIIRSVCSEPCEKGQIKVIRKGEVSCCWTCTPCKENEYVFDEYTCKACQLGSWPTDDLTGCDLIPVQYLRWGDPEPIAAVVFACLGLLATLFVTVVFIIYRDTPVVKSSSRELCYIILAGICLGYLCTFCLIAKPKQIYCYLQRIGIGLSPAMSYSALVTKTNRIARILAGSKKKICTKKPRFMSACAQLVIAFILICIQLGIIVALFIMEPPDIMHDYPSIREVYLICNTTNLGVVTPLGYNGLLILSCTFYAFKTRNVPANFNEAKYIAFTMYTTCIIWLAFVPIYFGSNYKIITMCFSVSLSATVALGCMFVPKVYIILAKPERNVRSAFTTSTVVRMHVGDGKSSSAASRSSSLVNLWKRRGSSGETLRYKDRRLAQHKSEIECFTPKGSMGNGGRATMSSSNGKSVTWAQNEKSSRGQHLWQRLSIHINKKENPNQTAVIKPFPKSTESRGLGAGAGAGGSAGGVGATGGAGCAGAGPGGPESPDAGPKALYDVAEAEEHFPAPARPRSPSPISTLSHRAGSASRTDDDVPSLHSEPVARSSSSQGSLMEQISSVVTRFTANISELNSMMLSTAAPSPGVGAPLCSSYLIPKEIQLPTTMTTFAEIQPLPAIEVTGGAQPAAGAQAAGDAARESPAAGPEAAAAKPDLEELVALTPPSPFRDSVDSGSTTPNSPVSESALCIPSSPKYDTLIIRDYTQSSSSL
Record class 1 whenever inhibition is at 20% or higher; record class 0 when lower.

INSERT INTO results (compound, target_or_system, qualitative_label) VALUES
  ('O=C(C1CCCC1)N1CCc2nc(C#Cc3ccccc3)sc2C1', 'Metabotropic glutamate receptor 5 (Homo sapiens, UniProt P41594)', 'class 1'),
  ('O=C(C1CCC1)N1CCc2nc(C#Cc3ccccc3)sc2C1', 'Metabotropic glutamate receptor 5 (Homo sapiens, UniProt P41594)', 'class 1'),
  ('CN(C)S(=O)(=O)N1CCc2nc(C#Cc3ccccc3)sc2C1', 'Metabotropic glutamate receptor 5 (Homo sapiens, UniProt P41594)', 'class 1'),
  ('CC1CC1C(=O)N1CCc2nc(C#Cc3ccccc3)sc2C1 (stereo not drawn)', 'Metabotropic glutamate receptor 5 (Homo sapiens, UniProt P41594)', 'class 0'),
  ('O=C(C1CCOC1)N1CCc2nc(C#Cc3ccccc3)sc2C1 (stereo not drawn)', 'Metabotropic glutamate receptor 5 (Homo sapiens, UniProt P41594)', 'class 1'),
  ('O=S(=O)(N1CCCC1)N1CCc2nc(C#Cc3ccccc3)sc2C1', 'Metabotropic glutamate receptor 5 (Homo sapiens, UniProt P41594)', 'class 1'),
  ('O=C(N1CCc2nc(C#Cc3ccccc3)sc2C1)N1CC(F)C1', 'Metabotropic glutamate receptor 5 (Homo sapiens, UniProt P41594)', 'class 0'),
  ('CC(C)S(=O)(=O)N1CCc2nc(C#Cc3ccccc3)sc2C1', 'Metabotropic glutamate receptor 5 (Homo sapiens, UniProt P41594)', 'class 1'),
  ('CC1CC(C(=O)N2CCc3nc(C#Cc4ccccc4)sc3C2)C1 (stereo not drawn)', 'Metabotropic glutamate receptor 5 (Homo sapiens, UniProt P41594)', 'class 0'),
  ('O=C(C1CC1)N1CCc2nc(C#Cc3ccccc3)sc2C1', 'Metabotropic glutamate receptor 5 (Homo sapiens, UniProt P41594)', 'class 1'),
  ('O=C(c1cccc(Cl)c1)N1CCc2nc(C#Cc3ccccc3)sc2C1', 'Metabotropic glutamate receptor 5 (Homo sapiens, UniProt P41594)', 'class 1'),
  ('O=C(CC1CCOCC1)N1CCc2nc(C#Cc3ccccc3)sc2C1', 'Metabotropic glutamate receptor 5 (Homo sapiens, UniProt P41594)', 'class 0'),
  ('CCC(=O)N1CCc2nc(C#Cc3ccccc3)sc2C1', 'Metabotropic glutamate receptor 5 (Homo sapiens, UniProt P41594)', 'class 1'),
  ('Fc1cccc(C#Cc2nc3c(s2)CN(C2CCCC2)CC3)c1', 'Metabotropic glutamate receptor 5 (Homo sapiens, UniProt P41594)', 'class 1'),
  ('O=C(C1CCCCO1)N1CCc2nc(C#Cc3ccccc3)sc2C1 (stereo not drawn)', 'Metabotropic glutamate receptor 5 (Homo sapiens, UniProt P41594)', 'class 1'),
  ('Cc1nc(C(=O)N2CCc3nc(C#Cc4ccccc4)sc3C2)cs1', 'Metabotropic glutamate receptor 5 (Homo sapiens, UniProt P41594)', 'class 0'),
  ('N#Cc1cccc(C(=O)N2CCc3nc(C#Cc4ccccc4)sc3C2)c1', 'Metabotropic glutamate receptor 5 (Homo sapiens, UniProt P41594)', 'class 0'),
  ('O=C(N1CCc2nc(C#Cc3ccccc3)sc2C1)N1CCC(F)(F)C1', 'Metabotropic glutamate receptor 5 (Homo sapiens, UniProt P41594)', 'class 1');
